These measurements were taken from patent EP2678315B1.

target: human alpha 7-wt nAChR (Homo sapiens, UniProt P36544); construct: expressed in transfected cells; assay: Ca2+ flux imaging (FDSS) (protocol B); assay type: cell-based; settings: Ca2+ assay as described in D.1; read-out: pEC50 (converted)
Sequence (P36544 23-502): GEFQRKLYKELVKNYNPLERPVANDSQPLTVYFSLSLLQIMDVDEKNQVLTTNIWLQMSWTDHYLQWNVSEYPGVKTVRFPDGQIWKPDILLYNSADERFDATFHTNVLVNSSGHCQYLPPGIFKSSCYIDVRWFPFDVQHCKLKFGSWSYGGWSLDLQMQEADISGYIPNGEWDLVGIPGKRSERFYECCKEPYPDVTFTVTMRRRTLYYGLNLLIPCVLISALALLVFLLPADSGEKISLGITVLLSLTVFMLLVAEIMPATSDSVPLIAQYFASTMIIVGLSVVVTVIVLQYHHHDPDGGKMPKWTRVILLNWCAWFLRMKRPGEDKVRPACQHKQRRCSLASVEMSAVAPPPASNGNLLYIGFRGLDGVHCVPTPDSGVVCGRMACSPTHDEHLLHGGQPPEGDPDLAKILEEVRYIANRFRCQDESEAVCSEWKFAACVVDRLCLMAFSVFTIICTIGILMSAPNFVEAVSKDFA
Exercise: state measured EC50 for each of the molecules provided.
Give bare numbers, in nM.

Please review the entries below; each comes with its answer.
{"columns": ["Molecule", "Quantity unit", "Measurement"],
 "data": [
  ["Cc1cc(-c2ccc(N3CCO[C@H](C(F)(F)F)C3)c(F)c2CNC(=O)c2conc2C)cc(C)n1 [Compound 66]", "nM", 398],
  ["Cc1cc(-c2ccc(N3CCO[C@H](C(F)(F)F)C3)c(F)c2CNC(=O)c2cc(C)on2)cc(C)n1 [Compound 67]", "nM", 347],
  ["O=C(CC1CC1)NCc1cc(N2CCOCC2)ccc1-c1ccncc1 [Compound 139]", "nM", 3160]
]}

Continue with the molecule presented below.
Exam item: Query (molecule): Cc1cc(-c2c(F)cc(N3CCO[C@H](C(F)(F)F)C3)cc2CNC(=O)c2cc(C)on2)cc(C)n1 [Compound 111] ; field requested: EC50
Marked response: 331

---

target: human alpha 7-wt nAChR (Homo sapiens); construct: expressed in transfected cells; test: Ca2+ flux imaging (FDSS) (protocol B); type: cell-based; conditions: Ca2+ assay as described in D.1; read-out: pEC50 (converted)
Quantity kind: log10 of EC50 (log10 of the value in nM)
The base-10 logarithm of EC50, taken with EC50 in nM, is what appears here.

// for each molecule below, give its log10 of EC50
1. Cc1cc(-c2c(F)cc(N3CCO[C@H](C(F)(F)F)C3)cc2CNC(=O)c2conc2C)cc(C)n1
2. Cc1cc(-c2c(F)cc(N3C[C@@H](C)O[C@@H](C)C3)cc2CNC(=O)c2cc(C)on2)ccn1
3. Cc1cc(-c2c(F)cc(N3CCO[C@@H](C(F)(F)F)C3)cc2CNC(=O)C(C)C)cc(C)n1
4. Cc1cc(-c2ccc(N3C[C@@H](C)O[C@@H](C)C3)c(F)c2CNC(=O)CCCC(F)(F)F)cc(C)n1
5. Cc1cc(-c2cc(F)c(N3C[C@@H](C)O[C@@H](C)C3)cc2CNC(=O)C2CC2)cc(C)n1
6. Cc1cc(-c2c(Cl)cc(N3C[C@@H](C)O[C@@H](C)C3)cc2CNC(=O)c2cc(C)on2)cc(C)n1

Marked response:
[1.56, 2.72, 0.99, 2.50, 2.76, 2.82]

---

Exercise: state measured EC50 for each of the molecules provided.
target: human alpha 7-wt nAChR (Homo sapiens); construct: expressed in transfected cells; assay: Ca2+ flux imaging (FDSS) (protocol B); assay type: cell-based; details: Ca2+ assay as described in D.1; read-out: pEC50 (converted)

{"columns": ["Molecule", "Assay system", "EC50"],
 "data": [
  ["Cc1cc(-c2ccc(N3CCOCC3)cc2CNC(=O)CC2CC2)cc(C)n1", "human alpha 7-wt nAChR (Homo sapiens)", "1780 nM"],
  ["Cc1cc(-c2ccc(C3C[C@@H](C)O[C@@H](C)C3)c(F)c2CNC(=O)C(C)C)cc(C)n1 (relative stereo)", "human alpha 7-wt nAChR (Homo sapiens)", "871 nM"],
  ["Cc1cc(-c2c(F)cc(N3CCOC(C)C3)cc2CNC(=O)c2cc(C)on2)cc(C)n1 (stereo not drawn)", "human alpha 7-wt nAChR (Homo sapiens)", "1070 nM"]
]}

// for each molecule below, give its EC50
1. Cc1cc(-c2ccc(N3CCO[C@H](C(F)(F)F)C3)c(F)c2CNC(=O)CC2CC2)cc(C)n1
2. Cc1cc(-c2ccc(N3C[C@@H](C)O[C@@H](C)C3)cc2CNC(=O)C(C)C2CC2)cc(C)n1 (relative stereo)
3. Cc1cc(-c2c(F)cc(N3CCO[C@@H](C(F)(F)F)C3)cc2CNC(=O)CC(C)C)cc(C)n1
4. Cc1cc(-c2ccc(N3CCO[C@@H](C(F)(F)F)C3)c(F)c2CNC(=O)C(C)C)cc(C)n1

Marked response:
1: 309 nM; 2: 24 nM; 3: < 10 nM; 4: 155 nM

// for each molecule below, give its EC50
1. Cc1cc(-c2c(F)cc(N3C[C@@H](C)O[C@@H](C)C3)cc2CNC(=O)CC(C)(C)C)cc(C)n1
2. Cc1cc(-c2ccc(N3C[C@@H](C)O[C@@H](C)C3)cc2CNC(=O)c2cc(C)on2)ccn1
3. Cc1cc(-c2ccc(N3C[C@@H](C)O[C@@H](C)C3)c(F)c2CNC(=O)c2cc(C)on2)cc(C)n1
4. Cc1cc(-c2ccc(N3C[C@@H](C)O[C@@H](C)C3)c(F)c2CNC(=O)CC2CC2)cc(C)n1
5. Cc1cc(-c2ccc(N3CCO[C@H](C(F)(F)F)C3)c(F)c2CNC(=O)C2CC2)cc(C)n1

Marked response:
1: 9.33 nM; 2: 1230 nM; 3: 977 nM; 4: 295 nM; 5: 776 nM

// for each molecule below, give its EC50
1. Cc1cc(-c2c(F)cc(N3C[C@@H](C)O[C@@H](C)C3)cc2CNC(=O)CC(C)C)cc(C)n1
2. Cc1cc(-c2ccc(N3CCO[C@@H](C(F)(F)F)C3)c(F)c2CNC(=O)C2CC2)cc(C)n1
3. Cc1cc(-c2c(F)cc(N3C[C@@H](C)O[C@@H](C)C3)c(F)c2CNC(=O)CC2CC2)cc(C)n1

Marked response:
1. 7.08 nM
2. 741 nM
3. 347 nM
